Known EC50, HEK293 CSF1R/SRE reporter, biological replica 1 of a selection of binders
- system tested: CSF1 receptor (CSF1R) (UniProt P07333)
- Sequence (P07333 20-972 limits assumed): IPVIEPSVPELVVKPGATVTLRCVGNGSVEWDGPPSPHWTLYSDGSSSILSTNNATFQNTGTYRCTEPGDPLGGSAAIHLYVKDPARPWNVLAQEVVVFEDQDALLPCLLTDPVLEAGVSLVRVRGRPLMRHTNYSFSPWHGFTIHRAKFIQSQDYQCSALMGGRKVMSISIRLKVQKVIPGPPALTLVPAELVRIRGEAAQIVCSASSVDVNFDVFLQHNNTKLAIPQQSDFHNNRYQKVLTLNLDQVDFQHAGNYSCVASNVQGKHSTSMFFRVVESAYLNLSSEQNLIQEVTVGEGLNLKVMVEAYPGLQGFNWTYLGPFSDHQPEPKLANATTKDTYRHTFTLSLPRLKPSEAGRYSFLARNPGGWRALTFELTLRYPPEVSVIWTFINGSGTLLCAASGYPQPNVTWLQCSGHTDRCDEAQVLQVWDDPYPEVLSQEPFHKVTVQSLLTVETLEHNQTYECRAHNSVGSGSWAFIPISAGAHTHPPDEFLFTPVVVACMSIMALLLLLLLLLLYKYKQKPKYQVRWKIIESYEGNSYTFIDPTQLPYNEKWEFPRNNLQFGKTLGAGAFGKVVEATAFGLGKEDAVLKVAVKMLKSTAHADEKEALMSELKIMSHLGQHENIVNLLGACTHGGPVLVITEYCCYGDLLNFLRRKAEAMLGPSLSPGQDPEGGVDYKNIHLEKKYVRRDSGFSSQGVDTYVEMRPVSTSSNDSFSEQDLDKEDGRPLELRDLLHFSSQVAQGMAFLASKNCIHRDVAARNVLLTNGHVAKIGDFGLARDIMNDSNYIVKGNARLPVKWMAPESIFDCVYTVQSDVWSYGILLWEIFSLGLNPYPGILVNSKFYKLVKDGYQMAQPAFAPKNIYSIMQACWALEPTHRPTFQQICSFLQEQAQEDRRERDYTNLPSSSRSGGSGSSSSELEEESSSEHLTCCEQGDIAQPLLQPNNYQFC
- measurement notes: cell-based or functional assay
reported property: EC50, HEK293 CSF1R/SRE reporter, biological replica 1

[[record]]
binder = "CSF1 Q17R (ligand) EEVSEYCSHMIGSGHLRSLQRLIDSQMETSCQITFEFVDQEQLKDPVCYLKKAFLLVQDIMEDTMRFRDNTPNAIAIVQLQELSLRLKSCFTKDYEEHDKACVRTFYETPLQLLEKVKNVFNETKNLLDKDWNIFSKNCNNSFAECSSQD"
numeric_readout = "2.7e-09"

[[record]]
binder = "CSF1 E82K (ligand) EEVSEYCSHMIGSGHLQSLQRLIDSQMETSCQITFEFVDQEQLKDPVCYLKKAFLLVQDIMEDTMRFRDNTPNAIAIVQLQKLSLRLKSCFTKDYEEHDKACVRTFYETPLQLLEKVKNVFNETKNLLDKDWNIFSKNCNNSFAECSSQD"
numeric_readout = "1.27e-08"

[[record]]
binder = "CSF1 Q81F (ligand) EEVSEYCSHMIGSGHLQSLQRLIDSQMETSCQITFEFVDQEQLKDPVCYLKKAFLLVQDIMEDTMRFRDNTPNAIAIVQLFELSLRLKSCFTKDYEEHDKACVRTFYETPLQLLEKVKNVFNETKNLLDKDWNIFSKNCNNSFAECSSQD"
numeric_readout = "1.08e-08"

[[record]]
binder = "CSF1 H9F (ligand) EEVSEYCSFMIGSGHLQSLQRLIDSQMETSCQITFEFVDQEQLKDPVCYLKKAFLLVQDIMEDTMRFRDNTPNAIAIVQLQELSLRLKSCFTKDYEEHDKACVRTFYETPLQLLEKVKNVFNETKNLLDKDWNIFSKNCNNSFAECSSQD"
numeric_readout = "2.66e-09"

[[record]]
binder = "CSF1 (wild-type human CSF1) (ligand) EEVSEYCSHMIGSGHLQSLQRLIDSQMETSCQITFEFVDQEQLKDPVCYLKKAFLLVQDIMEDTMRFRDNTPNAIAIVQLQELSLRLKSCFTKDYEEHDKACVRTFYETPLQLLEKVKNVFNETKNLLDKDWNIFSKNCNNSFAECSSQD"
numeric_readout = "1.88e-09"

